- Tested on: U2OS
- test protocol: Incucyte cell viability with U2OS; note: unitless GR value; below 1 slowed growth and below 0 cell loss
- Type: toxicity, cell-based
- test context: human, 18 h, 10 µM, compound concentration 10 uM, replicate number 1
Quick rule for you: Growth Rate at 0.8 or higher means fulfilled, lower means not fulfilled.

>  <compound>
Cc1cc(O)c(-c2ccc([C@@H](C)CN(C)C)cc2)c2c1[nH]c(=O)c1sccc12

>  <target entity>
U2OS

>  <classification>
not fulfilled

$$$$
>  <compound>
O=C(O)c1ccc(-c2c[nH]c3ncc(-c4ccccc4)cc23)cc1C1CCCC1 [GSK-650394]

>  <target entity>
U2OS

>  <classification>
fulfilled

$$$$
>  <compound>
CC(=O)O.NCCCc1c(C(=O)O)[nH]c2ccc(C(=O)Nc3ccccc3)cc12

>  <target entity>
U2OS

>  <classification>
fulfilled

$$$$
>  <compound>
CC(=O)Nc1cccc(-n2c(=O)n(C3CC3)c(=O)c3c(Nc4ccc(I)cc4F)n(C)c(=O)c(C)c32)c1 [TRAMETINIB]

>  <target entity>
U2OS

>  <classification>
not fulfilled

$$$$
>  <compound>
c1ccc2nc(N3CCNCC3)ccc2c1 [QUIPAZINE]

>  <target entity>
U2OS

>  <classification>
fulfilled

$$$$
>  <compound>
COc1cc(C(C)C)c(Oc2cnc(NC(CO)CO)nc2N)cc1I

>  <target entity>
U2OS

>  <classification>
fulfilled

$$$$
>  <compound>
CC1(C)Oc2ncnc(N)c2N=C1c1ccc([C@H]2CC[C@H](CC(=O)O)CC2)cc1

>  <target entity>
U2OS

>  <classification>
fulfilled

$$$$
>  <compound>
CCc1cncnc1N1CCN(Cc2nc3cc(C(F)(F)F)ccc3[nH]2)CC1

>  <target entity>
U2OS

>  <classification>
not fulfilled

$$$$
>  <compound>
O=C1C[C@@H]2OCC=C3CN4CC[C@]56c7ccccc7N1[C@H]5[C@H]2[C@H]3C[C@H]46 [STRYCHNINE]

>  <target entity>
U2OS

>  <classification>
fulfilled

$$$$
>  <compound>
CC(C)c1ccc(CC(=O)N[C@H](C)c2ccc(OCC(F)(F)F)cn2)cc1 [SUVECALTAMIDE]

>  <target entity>
U2OS

>  <classification>
not fulfilled

$$$$
>  <compound>
CC1(C)C(=O)N([C@H]2CCc3c(O)cccc32)c2nc(Nc3cccc(CN4CCCC4)c3)ncc21

>  <target entity>
U2OS

>  <classification>
not fulfilled

$$$$
>  <compound>
C[C@@H]1Cc2c([nH]c3ccccc23)[C@@H](c2c(F)cc(/C=C/C(=O)O)cc2F)N1CC(C)(C)F [AZD-9496]

>  <target entity>
U2OS

>  <classification>
fulfilled

$$$$
>  <compound>
CN1CCCN(C(=O)c2cccc(-c3ccc(/C=C4/C(=O)Nc5ccc(Cl)cc54)o3)c2)CC1

>  <target entity>
U2OS

>  <classification>
not fulfilled

$$$$
>  <compound>
Cc1ccc(NC(=O)c2ccc3cnccc3c2)cc1C(=O)Nc1cnc(Nc2cccc(NC3CCN(C(=O)/C=C/CN(C)C)CC3)c2)nc1

>  <target entity>
U2OS

>  <classification>
not fulfilled

$$$$
>  <compound>
CSc1ccc(C(=O)/C=C/c2cc(C)c(OC(C)(C)C(=O)O)c(C)c2)cc1 [ELAFIBRANOR]

>  <target entity>
U2OS

>  <classification>
fulfilled

$$$$
>  <compound>
CN1CC(=O)N(C)c2cnc(Nc3ccc(NC(=O)Nc4cccc(C(=O)O)c4)cc3)nc21

>  <target entity>
U2OS

>  <classification>
fulfilled

$$$$
>  <compound>
Cc1cc(-c2cnc(N)c3c(-c4ccc5scnc5c4)csc23)n(C)n1

>  <target entity>
U2OS

>  <classification>
fulfilled

$$$$
>  <compound>
CCc1nc(-c2cccc(C)c2)c(-c2ccnc(NC(=O)c3ccccc3)c2)s1 [TAK-715]

>  <target entity>
U2OS

>  <classification>
not fulfilled

$$$$
>  <compound>
Nc1nc2cc(-c3cc(Cl)ccc3Oc3cc(F)c(S(=O)(=O)Nc4ncns4)cc3F)ccc2[nH]1

>  <target entity>
U2OS

>  <classification>
not fulfilled

$$$$
>  <compound>
O=C(Nc1ccccc1C(=O)O)c1cc(S(=O)(=O)c2ccccc2)ccc1Cl

>  <target entity>
U2OS

>  <classification>
fulfilled

$$$$
>  <compound>
COC(=O)c1ccc2c(c1)NC(=O)/C2=C(\Nc1ccc(-c2nccn2C)cc1)c1ccccc1

>  <target entity>
U2OS

>  <classification>
not fulfilled

$$$$
>  <compound>
CNc1nc(NCc2ncccn2)c2c(-c3ccc4ncccc4c3)c[nH]c2n1

>  <target entity>
U2OS

>  <classification>
fulfilled

$$$$
>  <compound>
COc1cc2c(NC3CCN(C(C)C)CC3)nc(C3CCCCC3)nc2cc1OCCCN1CCCC1

>  <target entity>
U2OS

>  <classification>
not fulfilled

$$$$
>  <compound>
Cn1cc(-c2cnc3ccc4ccc(CS(=O)(=O)NCc5ccccn5)cc4c(=O)c3c2)cn1 [MK-8033]

>  <target entity>
U2OS

>  <classification>
fulfilled

$$$$
>  <compound>
Cc1[nH]nc2ccc(-c3cncc(OCC(N)Cc4c[nH]c5ccccc45)c3)cc12 (stereo unspecified)

>  <target entity>
U2OS

>  <classification>
not fulfilled

$$$$
>  <compound>
CCOC(=O)c1cnn(-c2ccc(NC(=O)C(Cl)=C(Cl)Cl)cc2)c1C(F)(F)F

>  <target entity>
U2OS

>  <classification>
not fulfilled

$$$$
>  <compound>
CCS(=O)(=O)Nc1cccc(Oc2cc(F)cc(Nc3ccc(I)cc3F)c2NS(=O)(=O)C2CC2)c1

>  <target entity>
U2OS

>  <classification>
fulfilled

$$$$
>  <compound>
COc1ccc(COc2ccc(Cc3cnc(N)nc3N)cc2OC)cc1 [GW632580X]

>  <target entity>
U2OS

>  <classification>
not fulfilled

$$$$
>  <compound>
COc1cc(-c2nn([C@H]3CC[C@H](N4CCN(C(C)=O)CC4)CC3)c3ncnc(N)c23)ccc1NC(=O)c1cc2ccccc2n1C

>  <target entity>
U2OS

>  <classification>
not fulfilled

$$$$
>  <compound>
COc1cc(F)ccc1-c1ncnc(Nc2cccc(C[S@](C)(=N)=O)c2)n1 [ATUVECICLIB]

>  <target entity>
U2OS

>  <classification>
not fulfilled

$$$$
>  <compound>
CC(C)[C@H](C(=O)Nc1ccc(C(=O)NO)cc1)c1ccccc1 [AR-42]

>  <target entity>
U2OS

>  <classification>
not fulfilled

$$$$
>  <compound>
Nc1nccc(-c2ccn3c(N)nccc23)n1

>  <target entity>
U2OS

>  <classification>
fulfilled

$$$$
>  <compound>
Cc1cc(Nc2ncc(Cl)c(Nc3ccccc3S(=O)(=O)C(C)C)n2)c(OC(C)C)cc1C1CCNCC1 [CERITINIB]

>  <target entity>
U2OS

>  <classification>
not fulfilled

$$$$
>  <compound>
Cc1cc(Cn2c(N3CC4(CNC4)C3)nc3cc(Cl)cc(N4CCN(C)CC4)c32)cc(C)c1F

>  <target entity>
U2OS

>  <classification>
fulfilled

$$$$

----------
Below, each entry is listed with its recorded Growth Rate.
- Test system: HEK-293T
- test protocol: Incucyte cell viability with HEK293T; note: unitless GR value; below 1 slowed growth and below 0 cell loss
- Format: toxicity, cell-based
- test context: human, 18 h, 10 µM, compound concentration 10 uM, replicate number 2

>  <compound>
CSc1nc2c(c(=O)n(C)c(=O)n2C)n1C

>  <Growth Rate>
1

$$$$
>  <compound>
COc1ccc(CCN(C)CCCC(C#N)(c2cc(OC)c(OC)c(OC)c2)C(C)C)cc1OC.Cl (stereo not given) [GALLOPAMIL HYDROCHLORIDE]

>  <Growth Rate>
0.94

$$$$
>  <compound>
Cl.O=C(NCCN1CCC2(CC1)C(=O)NCN2c1cccc(F)c1)c1ccc2ccccc2c1

>  <Growth Rate>
-0.32

$$$$
>  <compound>
COCCNc1nc2ccc(C#CC3(O)CCCCC3)cc2n1-c1ccnc(N)n1

>  <Growth Rate>
0.96

$$$$
>  <compound>
Cc1nccn1-c1ccc(Sc2cccc(C3(C(N)=O)CCOCC3)c2)cc1

>  <Growth Rate>
-0.09

$$$$

----------
- Test system: U2OS
- test protocol: Incucyte cell viability with U2OS; note: unitless GR value; below 1 slowed growth and below 0 cell loss
- Assay type: toxicity, cell-based
- test context: human, 24 h, 10 µM, compound concentration 10 uM, replicate number 1
Below, each entry is listed with its recorded Growth Rate.

>  <compound>
Cn1c(C(=O)N[C@@H](CO)c2ccc(C(=O)O)cc2)cc2cc(Cl)ccc21

>  <Growth Rate>
0.92

$$$$
>  <compound>
CC(=O)c1ccc2c(c1)/C(=C(/Nc1cccc(C#N)c1)c1ccc3c(c1)OCCO3)C(=O)N2

>  <Growth Rate>
0.52

$$$$
>  <compound>
O=C(N[C@H]1CN2CCC1CC2)c1ccc(Cl)cc1

>  <Growth Rate>
0.94

$$$$
>  <compound>
CCc1cnn2c(NCc3ccc[n+]([O-])c3)cc(N3CCCCC3CCO)nc12 (stereo not drawn)

>  <Growth Rate>
-0.23

$$$$
>  <compound>
NC(=O)C1CCCc2c1[nH]c1ccc(Cl)cc21 (stereo not drawn)

>  <Growth Rate>
1

$$$$
>  <compound>
NCc1ccc(OCCCc2sc(-c3ccc4c(c3)/C(=N/Nc3nc5ccccc5s3)CCC4)nc2C(=O)O)cc1

>  <Growth Rate>
0.58

$$$$
>  <compound>
CCCCCCCCCCCCCC(=O)O[C@@H]1[C@@H](C)[C@@]2(O)[C@@H](C=C(CO)C[C@]3(O)C(=O)C(C)=C[C@@H]23)[C@@H]2C(C)(C)[C@]12OC(C)=O [PHORBOL MYRISTATE ACETATE]

>  <Growth Rate>
0.96

$$$$
>  <compound>
CCN(C)C(=O)c1ccc2c(c1)NC(=O)/C2=C(\NC1CCN(C)CC1)c1ccccc1

>  <Growth Rate>
0.92

$$$$
